assay: Repeat once-weekly IV dose toxicokinetics in dogs; format: in vivo; settings: male, dog, in vivo, iv, 13.9 mg/kg, dogs M, 13.9 mg/kg once-weekly IV, Day 13; read-out: T1/2 (converted)
quantity kind: half-life (h)
Numbers only; they are read as h.

Data request: Tell me the measured half-life of CC1(C)C(=CC=C2CCCC(C=CC3=[N+](CCCCS(=O)(=O)[O-])c4ccc(S(=O)(=O)O)cc4C3(C)C)=C2Oc2ccc(CC(NC(=O)c3ccc(NCc4cnc5nc(N)[nH]c(=O)c5n4)cc3)C(=O)O)cc2)N(CCCCS(=O)(=O)O)c2ccc(S(=O)(=O)O)cc21 (stereo not shown) , please.
Data returned: 15

----------
Assay: Repeat once-weekly IV dose toxicokinetics in dogs
Assay type: in vivo
Details: female, dog, in vivo, iv, 13.9 mg/kg, dogs F, 13.9 mg/kg once-weekly IV, Day 13
Description: Overall, drug concentrations increased with ascending dose, noting that the mean profiles at the two highest dose levels were overlapping. Systemic exposure (AUClast) to pafolacianine was approximately dose-proportional over the range of doses administered (0.9 to 13.9 mg/kg) and within the observed variability (Table 5). […] On both Day 0 and Day 13, CL was slow (relative to hepatic blood flow) and Vss was moderate. Mean T1/2 ranged from approximately 13 to 18 hours.
quantity kind: C0 (µg/mL)
Numbers only; they are read as µg/mL.

Data request: Tell me the measured C0 of CC1(C)C(=CC=C2CCCC(C=CC3=[N+](CCCCS(=O)(=O)[O-])c4ccc(S(=O)(=O)O)cc4C3(C)C)=C2Oc2ccc(CC(NC(=O)c3ccc(NCc4cnc5nc(N)[nH]c(=O)c5n4)cc3)C(=O)O)cc2)N(CCCCS(=O)(=O)O)c2ccc(S(=O)(=O)O)cc21 (stereo not shown) , please.
Data returned: 104

----------
Assay: Phase 1a pharmacokinetics in healthy volunteers, single IV administration
Type: in vivo, human
Settings: human, plasma, intravenous, 0.05 mg/kg, in 220 ml 5% dextrose, 60-min infusion
Description: A total of 73 potentially eligible healthy volunteers gave written acknowledgement of informed consent to participate in a Phase 1a study to assess the safety and pharmacokinetics of pafolacianine versus placebo. Fifty-four were found suitable for participation, of which 30 were enrolled in the study. Twenty-four subjects were white, 1 subject was Black/African-American, 1 was Asian, 1 was mixed race and 3 were of another race. […]
quantity kind: Tmax (h)
Numbers only; they are read as h.

Data request: Tell me the measured Tmax of CC1(C)C(=CC=C2CCCC(C=CC3=[N+](CCCCS(=O)(=O)[O-])c4ccc(S(=O)(=O)O)cc4C3(C)C)=C2Oc2ccc(CC(NC(=O)c3ccc(NCc4cnc5nc(N)[nH]c(=O)c5n4)cc3)C(=O)O)cc2)N(CCCCS(=O)(=O)O)c2ccc(S(=O)(=O)O)cc21 (stereo not shown) , please.
Data returned: 1.03

----------
test: Phase 1a pharmacokinetics in healthy volunteers, single IV administration; format: in vivo, human; conditions: human, plasma, intravenous, 0.025 mg/kg, in 220 ml 5% dextrose, 60-min infusion
quantity kind: Tmax (min)
Numbers only; they are read as min.

Data request: Tell me the measured Tmax of CC1(C)C(=CC=C2CCCC(C=CC3=[N+](CCCCS(=O)(=O)[O-])c4ccc(S(=O)(=O)O)cc4C3(C)C)=C2Oc2ccc(CC(NC(=O)c3ccc(NCc4cnc5nc(N)[nH]c(=O)c5n4)cc3)C(=O)O)cc2)N(CCCCS(=O)(=O)O)c2ccc(S(=O)(=O)O)cc21 (stereo not shown) [pafolacianine] , please.
Data returned: 57

----------
test: Single IV dose toxicokinetics in rats; type: in vivo; settings: rat, in vivo; female rats, 30.8 mg/kg single IV, Study Day 0
quantity kind: C0 (µg/mL)
Numbers only; they are read as µg/mL.

Data request: Tell me the measured C0 of CC1(C)C(=CC=C2CCCC(C=CC3=[N+](CCCCS(=O)(=O)[O-])c4ccc(S(=O)(=O)O)cc4C3(C)C)=C2Oc2ccc(CC(NC(=O)c3ccc(NCc4cnc5nc(N)[nH]c(=O)c5n4)cc3)C(=O)O)cc2)N(CCCCS(=O)(=O)O)c2ccc(S(=O)(=O)O)cc21 (stereo not shown) , please.
Data returned: 178

----------
assay: Repeat once-weekly IV dose toxicokinetics in dogs; assay type: in vivo; settings: male, dog, in vivo, iv, 0.9 mg/kg, dogs M, 0.9 mg/kg once-weekly IV, Day 13
quantity kind: AUC(0-inf) (ng·h/mL)
Numbers only; they are read as ng·h/mL.

Data request: Tell me the measured AUC(0-inf) of CC1(C)C(=CC=C2CCCC(C=CC3=[N+](CCCCS(=O)(=O)[O-])c4ccc(S(=O)(=O)O)cc4C3(C)C)=C2Oc2ccc(CC(NC(=O)c3ccc(NCc4cnc5nc(N)[nH]c(=O)c5n4)cc3)C(=O)O)cc2)N(CCCCS(=O)(=O)O)c2ccc(S(=O)(=O)O)cc21 (stereo not shown) , please.
Data returned: 7360

----------
test: Phase 1a pharmacokinetics in healthy volunteers, single IV administration; type: in vivo, human; details: human, plasma, intravenous, 0.2 mg/kg, in 220 ml 5% dextrose, 60-min infusion; read-out: Cmax
quantity kind: Cmax (ng/mL)
Numbers only; they are read as ng/mL.

Data request: Tell me the measured Cmax of CC1(C)C(=CC=C2CCCC(C=CC3=[N+](CCCCS(=O)(=O)[O-])c4ccc(S(=O)(=O)O)cc4C3(C)C)=C2Oc2ccc(CC(NC(=O)c3ccc(NCc4cnc5nc(N)[nH]c(=O)c5n4)cc3)C(=O)O)cc2)N(CCCCS(=O)(=O)O)c2ccc(S(=O)(=O)O)cc21 (stereo not shown) , please.
Data returned: 640

----------
assay: Repeat once-weekly IV dose toxicokinetics in rats; type: in vivo; details: male, rat, in vivo, iv, 46.3 mg/kg, rats M, 46.3 mg/kg once-weekly IV, Day 13; read-out: T1/2 (converted)
quantity kind: half-life
Remember to follow the number with its unit.

Data request: Tell me the measured half-life of CC1(C)C(=CC=C2CCCC(C=CC3=[N+](CCCCS(=O)(=O)[O-])c4ccc(S(=O)(=O)O)cc4C3(C)C)=C2Oc2ccc(CC(NC(=O)c3ccc(NCc4cnc5nc(N)[nH]c(=O)c5n4)cc3)C(=O)O)cc2)N(CCCCS(=O)(=O)O)c2ccc(S(=O)(=O)O)cc21 (stereo not shown) [pafolacianine] , please.
Data returned: 7.35 h

----------
assay: Repeat once-weekly IV dose toxicokinetics in rats; format: in vivo; details: female, rat, in vivo, iv, 3.1 mg/kg, rats F, 3.1 mg/kg once-weekly IV, Day 0; read-out: T1/2 (converted)
quantity kind: half-life (h)
Numbers only; they are read as h.

Data request: Tell me the measured half-life of CC1(C)C(=CC=C2CCCC(C=CC3=[N+](CCCCS(=O)(=O)[O-])c4ccc(S(=O)(=O)O)cc4C3(C)C)=C2Oc2ccc(CC(NC(=O)c3ccc(NCc4cnc5nc(N)[nH]c(=O)c5n4)cc3)C(=O)O)cc2)N(CCCCS(=O)(=O)O)c2ccc(S(=O)(=O)O)cc21 (stereo not shown) , please.
Data returned: 7.18

----------
experiment: Repeat once-weekly IV dose toxicokinetics in dogs; type: in vivo; details: female, dog, in vivo, iv, 13.9 mg/kg, dogs F, 13.9 mg/kg once-weekly IV, Day 13; read-out: Vss
quantity kind: Vd (L/kg)
Numbers only; they are read as L/kg.

Data request: Tell me the measured Vd of CC1(C)C(=CC=C2CCCC(C=CC3=[N+](CCCCS(=O)(=O)[O-])c4ccc(S(=O)(=O)O)cc4C3(C)C)=C2Oc2ccc(CC(NC(=O)c3ccc(NCc4cnc5nc(N)[nH]c(=O)c5n4)cc3)C(=O)O)cc2)N(CCCCS(=O)(=O)O)c2ccc(S(=O)(=O)O)cc21 (stereo not shown) , please.
Data returned: 1.83

----------
test: Repeat once-weekly IV dose toxicokinetics in dogs; assay type: in vivo; settings: female, dog, in vivo, iv, 0.9 mg/kg, dogs F, 0.9 mg/kg once-weekly IV, Day 13; read-out: Vss
quantity kind: Vd

Data request: Tell me the measured Vd of CC1(C)C(=CC=C2CCCC(C=CC3=[N+](CCCCS(=O)(=O)[O-])c4ccc(S(=O)(=O)O)cc4C3(C)C)=C2Oc2ccc(CC(NC(=O)c3ccc(NCc4cnc5nc(N)[nH]c(=O)c5n4)cc3)C(=O)O)cc2)N(CCCCS(=O)(=O)O)c2ccc(S(=O)(=O)O)cc21 (stereo not shown) [pafolacianine] , please.
Data returned: 1.49 L/kg

----------
test: Repeat once-weekly IV dose toxicokinetics in rats; type: in vivo; conditions: female, rat, in vivo, iv, 3.1 mg/kg, rats F, 3.1 mg/kg once-weekly IV, Day 13; read-out: Vss
quantity kind: Vd (L/kg)
Numbers only; they are read as L/kg.

Data request: Tell me the measured Vd of CC1(C)C(=CC=C2CCCC(C=CC3=[N+](CCCCS(=O)(=O)[O-])c4ccc(S(=O)(=O)O)cc4C3(C)C)=C2Oc2ccc(CC(NC(=O)c3ccc(NCc4cnc5nc(N)[nH]c(=O)c5n4)cc3)C(=O)O)cc2)N(CCCCS(=O)(=O)O)c2ccc(S(=O)(=O)O)cc21 (stereo not shown) , please.
Data returned: 1.7
